Tested on: S. aureus 8810
Test: Broth microdilution antibacterial assay
Type: cell-based, Staphylococcus aureus
Details: MRC-5 CC50 / S. aureus IC50
Each entry below carries its reported Selectivity index (CC50/IC50).

# molecule, Selectivity index (CC50/IC50)
rows = [
    ("CN(CC[C@H](N)CC(=O)N[C@H]1C=C[C@H](n2ccc(N)nc2=O)O[C@@H]1C(=O)O)C(=N)N [Compound 1, blasticidin S]", 0.6),
    ("CN(CC[C@H](N)CC(=O)N[C@H]1C=C[C@H](n2ccc(N)nc2=O)O[C@@H]1C(=O)NCCO)C(=N)N [Compound 21]", 7.1),
    ("CNC(=O)[C@H]1O[C@@H](n2ccc(N)nc2=O)C=C[C@@H]1NC(=O)C[C@@H](N)CCN(C)C(=N)N [Compound 15, Methyl amide]", 8.9),
    ("CCCNC(=O)[C@H]1O[C@@H](n2ccc(N)nc2=O)C=C[C@@H]1NC(=O)C[C@@H](N)CCN(C)C(=N)N [Compound 17]", 16),
    ("CN(CC[C@H](N)CC(=O)N[C@H]1C=C[C@H](n2ccc(N)nc2=O)O[C@@H]1C(N)=O)C(=N)N [Compound 2, P10]", 1.3),
    ("C#CCNC(=O)[C@H]1O[C@@H](n2ccc(N)nc2=O)C=C[C@@H]1NC(=O)C[C@@H](N)CCN(C)C(=N)N [Compound 19]", 9.2),
    ("CN(CC[C@H](N)CC(=O)N[C@H]1C=C[C@H](n2ccc(N)nc2=O)O[C@@H]1C(=O)NCCc1ccccc1)C(=N)N [Compound 22]", 15),
    ("CN(C)C(=O)[C@H]1O[C@@H](n2ccc(N)nc2=O)C=C[C@@H]1NC(=O)C[C@@H](N)CCN(C)C(=N)N [Compound 18]", 9.1),
    ("CCNC(=O)[C@H]1O[C@@H](n2ccc(N)nc2=O)C=C[C@@H]1NC(=O)C[C@@H](N)CCN(C)C(=N)N [Compound 16]", 26),
    ("C#CCCNC(=O)[C@H]1O[C@@H](n2ccc(N)nc2=O)C=C[C@@H]1NC(=O)C[C@@H](N)CCN(C)C(=N)N [Compound 20]", 26),
]

---

Test system: Klebsiella pneumoniae ATCC 29665
Assay: Broth microdilution antibacterial assay
Format: cell-based
Conditions: Klebsiella pneumoniae, ATCC29665; K. pneumoniae; average of two biological replicates ± S.D.; read-out: IC50
test.readout: IC50

# compound, test.readout, value.measured
data = [
    ("CN(CC[C@H](N)CC(=O)N[C@H]1C=C[C@H](n2ccc(N)nc2=O)O[C@@H]1C(=O)NCCO)C(=N)N", "IC50", "19.7 µg/mL"),
    ("CNC(=O)[C@H]1O[C@@H](n2ccc(N)nc2=O)C=C[C@@H]1NC(=O)C[C@@H](N)CCN(C)C(=N)N [Compound 15, Methyl amide]", "IC50", "26.4 µg/mL"),
    ("CN(C)C(=O)[C@H]1O[C@@H](n2ccc(N)nc2=O)C=C[C@@H]1NC(=O)C[C@@H](N)CCN(C)C(=N)N", "IC50", "60.1 µg/mL"),
    ("C#CCNC(=O)[C@H]1O[C@@H](n2ccc(N)nc2=O)C=C[C@@H]1NC(=O)C[C@@H](N)CCN(C)C(=N)N", "IC50", "40.4 µg/mL"),
    ("CN(CC[C@H](N)CC(=O)N[C@H]1C=C[C@H](n2ccc(N)nc2=O)O[C@@H]1C(=O)NCCc1ccccc1)C(=N)N", "IC50", "36.9 µg/mL"),
    ("C#CCCNC(=O)[C@H]1O[C@@H](n2ccc(N)nc2=O)C=C[C@@H]1NC(=O)C[C@@H](N)CCN(C)C(=N)N", "IC50", "30.7 µg/mL"),
    ("CN(CC[C@H](N)CC(=O)N[C@H]1C=C[C@H](n2ccc(N)nc2=O)O[C@@H]1C(N)=O)C(=N)N", "IC50", "7.6 µg/mL"),
    ("CCNC(=O)[C@H]1O[C@@H](n2ccc(N)nc2=O)C=C[C@@H]1NC(=O)C[C@@H](N)CCN(C)C(=N)N", "IC50", "60.1 µg/mL"),
]

---

Each entry below carries its reported MIC.
Test system: Klebsiella pneumoniae ATCC 29665
Test: Broth microdilution antibacterial assay
Assay type: cell-based
Conditions: Klebsiella pneumoniae, ATCC29665; K. pneumoniae; lowest concentration inhibiting >90% of growth; range from biological replicates; read-out: MIC
test.readout: MIC (µg/mL)

# molecule, study.system, test.readout, display.unit, value.measured
records = [
    ("C#CCCNC(=O)[C@H]1O[C@@H](n2ccc(N)nc2=O)C=C[C@@H]1NC(=O)C[C@@H](N)CCN(C)C(=N)N", "Klebsiella pneumoniae ATCC 29665", "MIC", "µg/mL", 128),
    ("C#CCNC(=O)[C@H]1O[C@@H](n2ccc(N)nc2=O)C=C[C@@H]1NC(=O)C[C@@H](N)CCN(C)C(=N)N", "Klebsiella pneumoniae ATCC 29665", "MIC", "µg/mL", 128),
    ("CN(CC[C@H](N)CC(=O)N[C@H]1C=C[C@H](n2ccc(N)nc2=O)O[C@@H]1C(=O)NCCc1ccccc1)C(=N)N", "Klebsiella pneumoniae ATCC 29665", "MIC", "µg/mL", 256),
    ("CNC(=O)[C@H]1O[C@@H](n2ccc(N)nc2=O)C=C[C@@H]1NC(=O)C[C@@H](N)CCN(C)C(=N)N [Compound 15, Methyl amide]", "Klebsiella pneumoniae ATCC 29665", "MIC", "µg/mL", 64),
    ("CCNC(=O)[C@H]1O[C@@H](n2ccc(N)nc2=O)C=C[C@@H]1NC(=O)C[C@@H](N)CCN(C)C(=N)N", "Klebsiella pneumoniae ATCC 29665", "MIC", "µg/mL", 256),
    ("CN(C)C(=O)[C@H]1O[C@@H](n2ccc(N)nc2=O)C=C[C@@H]1NC(=O)C[C@@H](N)CCN(C)C(=N)N", "Klebsiella pneumoniae ATCC 29665", "MIC", "µg/mL", 256),
    ("CN(CC[C@H](N)CC(=O)N[C@H]1C=C[C@H](n2ccc(N)nc2=O)O[C@@H]1C(=O)NCCO)C(=N)N", "Klebsiella pneumoniae ATCC 29665", "MIC", "µg/mL", 64),
    ("CN(CC[C@H](N)CC(=O)N[C@H]1C=C[C@H](n2ccc(N)nc2=O)O[C@@H]1C(N)=O)C(=N)N", "Klebsiella pneumoniae ATCC 29665", "MIC", "µg/mL", 32),
]

---

Test system: Pseudomonas aeruginosa
Assay: Broth microdilution antibacterial assay
Format: cell-based
Details: Pseudomonas aeruginosa; P. aeruginosa; lowest concentration inhibiting >90% of growth; range from biological replicates; read-out: MIC
Procedure: Antibacterial Assay Procedure Broth Microdilution Assays Media and solutions were autoclaved or sterile filtered prior to use and manipulations were carried out in a laminar flow hood. Antibacterial testing was performed in polypropylene 96 -well flat bottom plates. […] Inhibition was determined by measuring the optical density at 600 nm (OD600) with a Cytation 3 plate reader (BioTek). […] CC50 concentrations were determined via the ED50 Plus v1.0 software (https://archive.org/details/ed50v10_zip).
test.readout: MIC (mg/L)

# compound, test.readout, display.unit, value.measured
measured = [
    ("CN(CC[C@H](N)CC(=O)N[C@H]1C=C[C@H](n2ccc(N)nc2=O)O[C@@H]1C(N)=O)C(=N)N [Compound 2, P10]", "MIC", "mg/L", 64),
    ("CN(CC[C@H](N)CC(=O)N[C@H]1C=C[C@H](n2ccc(N)nc2=O)O[C@@H]1C(=O)NCCO)C(=N)N [Compound 21]", "MIC", "mg/L", 128),
    ("C#CCCNC(=O)[C@H]1O[C@@H](n2ccc(N)nc2=O)C=C[C@@H]1NC(=O)C[C@@H](N)CCN(C)C(=N)N [Compound 20]", "MIC", "mg/L", 64),
    ("CN(CC[C@H](N)CC(=O)N[C@H]1C=C[C@H](n2ccc(N)nc2=O)O[C@@H]1C(=O)NCCc1ccccc1)C(=N)N [Compound 22]", "MIC", "mg/L", 64),
    ("C#CCNC(=O)[C@H]1O[C@@H](n2ccc(N)nc2=O)C=C[C@@H]1NC(=O)C[C@@H](N)CCN(C)C(=N)N [Compound 19]", "MIC", "mg/L", 64),
]

---

Each entry below carries its reported log10(IC50).
Test system: Acinetobacter baumannii ATCC 17978
Test: Broth microdilution antibacterial assay
Format: cell-based
Conditions: Acinetobacter baumannii, ATCC17978; A. baumannii; average of two biological replicates ± S.D.; read-out: IC50
test.readout: log10(IC50) (log10 of the value in µg/mL)

# compound, study.system, log10(IC50)
measured = [
    ("CCNC(=O)[C@H]1O[C@@H](n2ccc(N)nc2=O)C=C[C@@H]1NC(=O)C[C@@H](N)CCN(C)C(=N)N [Compound 16]", "Acinetobacter baumannii ATCC 17978", 1.55),
    ("CN(CC[C@H](N)CC(=O)N[C@H]1C=C[C@H](n2ccc(N)nc2=O)O[C@@H]1C(=O)NCCc1ccccc1)C(=N)N [Compound 22]", "Acinetobacter baumannii ATCC 17978", 2.26),
    ("C#CCCNC(=O)[C@H]1O[C@@H](n2ccc(N)nc2=O)C=C[C@@H]1NC(=O)C[C@@H](N)CCN(C)C(=N)N [Compound 20]", "Acinetobacter baumannii ATCC 17978", 1.39),
    ("C#CCNC(=O)[C@H]1O[C@@H](n2ccc(N)nc2=O)C=C[C@@H]1NC(=O)C[C@@H](N)CCN(C)C(=N)N [Compound 19]", "Acinetobacter baumannii ATCC 17978", 1.32),
    ("CNC(=O)[C@H]1O[C@@H](n2ccc(N)nc2=O)C=C[C@@H]1NC(=O)C[C@@H](N)CCN(C)C(=N)N [Compound 15, Methyl amide]", "Acinetobacter baumannii ATCC 17978", 1.26),
    ("CN(CC[C@H](N)CC(=O)N[C@H]1C=C[C@H](n2ccc(N)nc2=O)O[C@@H]1C(N)=O)C(=N)N [Compound 2, P10]", "Acinetobacter baumannii ATCC 17978", 0.65),
    ("CN(CC[C@H](N)CC(=O)N[C@H]1C=C[C@H](n2ccc(N)nc2=O)O[C@@H]1C(=O)NCCO)C(=N)N [Compound 21]", "Acinetobacter baumannii ATCC 17978", 1.33),
    ("CN(C)C(=O)[C@H]1O[C@@H](n2ccc(N)nc2=O)C=C[C@@H]1NC(=O)C[C@@H](N)CCN(C)C(=N)N [Compound 18]", "Acinetobacter baumannii ATCC 17978", 1.67),
]
